The following variants are listed with their measured normalized RNA/DNA level without ligand (log10) values.
B1: library; a variant is named by its letters at N, in order (parent)
chain: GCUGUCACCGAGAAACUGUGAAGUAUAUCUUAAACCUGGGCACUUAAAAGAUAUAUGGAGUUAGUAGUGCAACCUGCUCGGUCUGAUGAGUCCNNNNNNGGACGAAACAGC

variants of: B1; experiment: normalized RNA/DNA level without ligand (relative to sTRSVctl = 100) (log10 (% of sTRSVctl)); HEK293T; ligand: cyclic di-GMP (c-di-GMP-II aptamer); higher = less ribozyme self-cleavage, higher mRNA level; details: reporter: mCherry (pCS4076), ligand present: no
Just the number.

variantLabel	testResult
CCAUAG	1.4

Attention now turns to another entry.
Task: Quick check: normalized RNA/DNA level without ligand (log10) of CAAGUA ?
Result: 1.46
